testedTarget: E. coli ADP-glucose pyrophosphorylase (ADP-Glc PPase) (Escherichia coli, UniProt P0A6V1, R419A)
Construct: gene glgC
protocol: ADP-glucose synthesis, colorimetric phosphate detection after pyrophosphatase
Assay type: biochemical
appliedConditions: activator, allosteric; 1.0 mM Glc1P, 1.5 mM ATP, 10 mM MgCl2, pH 8.0; read-out: FBP / A0.5 /

molecule	unitOfMeasure	EC50
O=P(O)(O)OC[C@H]1OC(O)(COP(=O)(O)O)[C@@H](O)[C@@H]1O (stereo partly shown)	µM	36

====

testedTarget: E. coli ADP-glucose pyrophosphorylase (ADP-Glc PPase) (Escherichia coli, UniProt P0A6V1, R386A)
Construct: gene glgC
protocol: ADP-glucose synthesis, colorimetric phosphate detection after pyrophosphatase
Assay type: biochemical
appliedConditions: activator, allosteric; 1.0 mM Glc1P, 1.5 mM ATP, 10 mM MgCl2, pH 8.0; read-out: FBP / A0.5 /
Source text: ADP-glucose synthesis, colorimetric phosphate detection after pyrophosphatase on E. coli ADP-glucose pyrophosphorylase (ADP-Glc PPase)
quantityKind: EC50 (mM)

compound	quantityKind	valueReported
O=P(O)(O)OC[C@H]1OC(O)(COP(=O)(O)O)[C@@H](O)[C@@H]1O (stereo partly shown)	EC50	1

====

testedTarget: E. coli ADP-glucose pyrophosphorylase (ADP-Glc PPase) (Escherichia coli, UniProt P0A6V1, R419A)
Construct: gene glgC
protocol: ADP-glucose synthesis, colorimetric phosphate detection after pyrophosphatase
Type: biochemical
appliedConditions: read-out: PLP / A0.5 /
From the text: ADP-glucose synthesis, colorimetric phosphate detection after pyrophosphatase on E. coli ADP-glucose pyrophosphorylase (ADP-Glc PPase)

mol	unitOfMeasure	EC50
Cc1ncc(COP(=O)(O)O)c(C=O)c1O	nM	19

====

testedTarget: E. coli ADP-glucose pyrophosphorylase (ADP-Glc PPase) (Escherichia coli, UniProt P0A6V1, R130A)
Construct: gene glgC
protocol: ADP-glucose synthesis, colorimetric phosphate detection after pyrophosphatase
Type: biochemical
appliedConditions: activator, allosteric; 1.0 mM Glc1P, 1.5 mM ATP, 10 mM MgCl2, pH 8.0; read-out: FBP / A0.5 /
pEC50: −log10 of the molar value.
quantityKind: pEC50

compound	valueReported
O=P(O)(O)OC[C@H]1OC(O)(COP(=O)(O)O)[C@@H](O)[C@@H]1O (stereo partly shown)	4.17

====

testedTarget: E. coli ADP-glucose pyrophosphorylase (ADP-Glc PPase) (Escherichia coli, UniProt P0A6V1)
Construct: gene glgC
protocol: ADP-glucose synthesis, colorimetric phosphate detection after pyrophosphatase
Format: biochemical
appliedConditions: activator, allosteric; 1.0 mM Glc1P, 1.5 mM ATP, 10 mM MgCl2, pH 8.0; read-out: FBP / A0.5 /
pEC50: −log10 of the molar value.
quantityKind: pEC50

compound	quantityKind	valueReported
O=P(O)(O)OC[C@H]1OC(O)(COP(=O)(O)O)[C@@H](O)[C@@H]1O (stereo partly shown)	pEC50	4.57

====

testedTarget: E. coli ADP-glucose pyrophosphorylase (ADP-Glc PPase) (Escherichia coli, UniProt P0A6V1)
Construct: gene glgC
protocol: ADP-glucose synthesis, colorimetric phosphate detection after pyrophosphatase
Assay type: biochemical
appliedConditions: read-out: PLP / A0.5 /
quantityKind: EC50 (µM)

molecule	valueReported
Cc1ncc(COP(=O)(O)O)c(C=O)c1O [PLP]	0.075

====

testedTarget: E. coli ADP-glucose pyrophosphorylase (ADP-Glc PPase) (Escherichia coli, UniProt P0A6V1, R353A)
Construct: gene glgC
protocol: ADP-glucose synthesis, colorimetric phosphate detection after pyrophosphatase
Assay type: biochemical
appliedConditions: read-out: PLP / A0.5 /
pEC50: −log10 of the molar value.
quantityKind: pEC50

mol	valueReported
Cc1ncc(COP(=O)(O)O)c(C=O)c1O	6.80

====

testedTarget: E. coli ADP-glucose pyrophosphorylase (ADP-Glc PPase) (Escherichia coli, UniProt P0A6V1, R423A)
Construct: gene glgC
Sequence (P0A6V1 1-431 R423A): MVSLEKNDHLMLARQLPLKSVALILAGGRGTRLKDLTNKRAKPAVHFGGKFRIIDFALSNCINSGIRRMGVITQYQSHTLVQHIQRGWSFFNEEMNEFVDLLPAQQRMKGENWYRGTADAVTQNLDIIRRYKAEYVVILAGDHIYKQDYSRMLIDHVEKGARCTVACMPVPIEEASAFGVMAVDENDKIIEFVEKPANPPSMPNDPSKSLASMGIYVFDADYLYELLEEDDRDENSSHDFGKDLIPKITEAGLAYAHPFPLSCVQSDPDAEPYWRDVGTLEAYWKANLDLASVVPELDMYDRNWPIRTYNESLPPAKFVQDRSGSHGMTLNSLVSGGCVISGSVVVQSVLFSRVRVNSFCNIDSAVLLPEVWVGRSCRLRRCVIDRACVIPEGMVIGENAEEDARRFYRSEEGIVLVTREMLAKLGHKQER
protocol: ADP-glucose synthesis, colorimetric phosphate detection after pyrophosphatase
Assay type: biochemical
appliedConditions: read-out: PLP / A0.5 /
quantityKind: EC50 (nM)

mol	unitOfMeasure	valueReported
Cc1ncc(COP(=O)(O)O)c(C=O)c1O	nM	210

====

testedTarget: E. coli ADP-glucose pyrophosphorylase (ADP-Glc PPase) (Escherichia coli, UniProt P0A6V1, R52K)
Sequence (P0A6V1 1-431 R52K): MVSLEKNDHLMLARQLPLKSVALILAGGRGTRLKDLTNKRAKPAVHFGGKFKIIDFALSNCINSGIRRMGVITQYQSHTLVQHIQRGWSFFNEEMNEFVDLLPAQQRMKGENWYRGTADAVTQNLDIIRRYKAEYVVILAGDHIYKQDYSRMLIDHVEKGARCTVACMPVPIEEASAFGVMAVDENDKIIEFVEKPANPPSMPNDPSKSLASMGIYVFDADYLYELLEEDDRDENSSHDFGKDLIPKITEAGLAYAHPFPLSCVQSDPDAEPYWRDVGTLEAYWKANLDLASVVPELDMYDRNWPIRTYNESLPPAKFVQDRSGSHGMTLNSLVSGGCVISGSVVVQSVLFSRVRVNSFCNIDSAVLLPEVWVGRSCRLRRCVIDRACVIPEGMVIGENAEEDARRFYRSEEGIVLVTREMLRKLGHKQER
protocol: ADP-glucose synthesis, colorimetric phosphate detection after pyrophosphatase
appliedConditions: read-out: PLP / A0.5 /
pEC50: −log10 of the molar value.

mol	pEC50
Cc1ncc(COP(=O)(O)O)c(C=O)c1O	6.66

====

testedTarget: E. coli ADP-glucose pyrophosphorylase (ADP-Glc PPase) (Escherichia coli, UniProt P0A6V1, R386A)
Construct: gene glgC
protocol: ADP-glucose synthesis, colorimetric phosphate detection after pyrophosphatase
Format: biochemical
appliedConditions: read-out: PLP / A0.5 /
pEC50: −log10 of the molar value.

mol	pEC50
Cc1ncc(COP(=O)(O)O)c(C=O)c1O	5.38
